Kindly state IC50 for each of the entries shown.
Target protein (sequence): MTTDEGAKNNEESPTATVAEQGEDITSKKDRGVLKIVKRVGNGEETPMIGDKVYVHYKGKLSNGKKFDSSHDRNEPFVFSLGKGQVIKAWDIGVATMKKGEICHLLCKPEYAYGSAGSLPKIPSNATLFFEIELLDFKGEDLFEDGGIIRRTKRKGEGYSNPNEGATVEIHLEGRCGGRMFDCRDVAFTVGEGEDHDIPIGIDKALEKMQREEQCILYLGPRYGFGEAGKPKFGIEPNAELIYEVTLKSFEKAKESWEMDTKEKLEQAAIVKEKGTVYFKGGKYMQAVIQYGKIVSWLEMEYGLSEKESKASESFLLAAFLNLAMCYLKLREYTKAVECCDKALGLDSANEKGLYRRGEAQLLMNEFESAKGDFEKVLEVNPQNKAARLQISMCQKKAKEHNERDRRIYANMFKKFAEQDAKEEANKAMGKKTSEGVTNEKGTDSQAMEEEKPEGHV
Peptide text beside a SMILES is read from it.
Note: unit µM is implicit; provide only the numeric part.

Challenge: # IC50 lookup, item CC(C)C[C@H](NC(=O)[C@H](CC(=O)O)NC(=O)[C@H](Cc1ccc(O)cc1)NC(=O)[C@H](CC(C)C)NC(=O)[C@H](CC(C)C)NC(=O)[C@H](CO)NC(=O)[C@H](CC(N)=O)NC(=O)[C@H](CCC(N)=O)NC(=O)[C@@H](N)Cc1ccccc1)C(=O)N[C@@H](CC(=O)O)C(=O)O [DNAAF2] (H-FQNSLLYDLD-OH)
Response given: 25.6

Challenge: # IC50 lookup, item CSCC[C@H](NC(=O)[C@H](CC(N)=O)NC(=O)[C@@H](NC(=O)[C@H](CO)NC(=O)[C@H](CC(N)=O)NC(=O)[C@H](CCCCN)NC(=O)[C@@H](N)CCC(=O)O)C(C)C)C(=O)N[C@@H](CC(=O)O)C(=O)N[C@@H](CC(C)C)C(=O)N[C@@H](CC(=O)O)C(=O)O [Hsp105] (H-EKNSVNMDLD-OH)
Response given: 42.8

Challenge: # IC50 lookup, item CC(C)C[C@H](NC(=O)[C@H](CO)NC(=O)[C@H](CCC(N)=O)NC(=O)[C@@H]1CCCN1C(=O)[C@H](CCC(=O)O)NC(=O)[C@H](C)N)C(=O)N[C@@H](CC(=O)O)C(=O)NCC(=O)N[C@H](C(=O)N[C@@H](CC(=O)O)C(=O)O)C(C)C [NADSYN1] (H-AEPQSLDGVD-OH)
Response given: 28.2

Challenge: # IC50 lookup, item CSCC[C@H](NC(=O)[C@H](CC(N)=O)NC(=O)[C@H](CO)NC(=O)[C@H](Cc1ccc(O)cc1)NC(=O)[C@@H](NC(=O)[C@@H]1CCCN1)[C@@H](C)O)C(=O)N[C@@H](CCC(=O)O)C(=O)N[C@@H](CCC(=O)O)C(=O)N[C@H](C(=O)N[C@@H](CC(=O)O)C(=O)O)C(C)C [Usp19] (H-PTYSNMEEVD-OH)
Response given: 19.7
